measurement target: UniProt P03951
assay notes: Factor XIa enzyme inhibition assay (chromogenic substrate S-2366)
condition set: read-out: Factor XIa Ki; measured at 25° C.
Structures can show the parent of a compound that is named as a salt.
readout kind: pKi
Answers are plain numbers, as −log10 of the molar value.

Solved entries:
[
  {
    "compound": "O=C(Nc1ccc(CO)cc1)C1c2cccc(Br)c2CCN1C(=O)c1cn(-c2cccc(Cl)c2F)nn1 (stereo not drawn)",
    "pKi": 5.40
  },
  {
    "compound": "COC1CCN(c2cccc3c2CCN(C(=O)c2cn(-c4cccc(Cl)c4F)nn2)[C@H]3C(=O)Nc2ccc(CO)cc2)CC1",
    "pKi": 5.98
  },
  {
    "compound": "CO[C@@H]1CCN(c2cccc3c2CCN(C(=O)[C@H]2CC(c4cccc(Cl)c4F)=NO2)[C@H]3C(=O)Nc2ccc(C(=O)O)cc2)C1 [Example 299, TFA salt]",
    "pKi": 7.20
  },
  {
    "compound": "Cc1c2c(nn1C)CCN(C(=O)c1cn(-c3cccc(Cl)c3F)nn1)C2C(=O)Nc1ccc(C(=O)O)cc1 (stereo not drawn)",
    "pKi": 7.52
  }
]

Next compound, pKi to be filled in.
Fill in pKi for record CN(C)C1CCN(c2cccc3c2CCN(C(=O)c2cnn(-c4cccc(Cl)c4F)c2)C3C(=O)Nc2ccc(OCC3CCCO3)cc2)CC1 (stereo not drawn) [Example 95, TFA salt]
7.83

---

measurement target: UniProt:P03951
assay notes: Factor XIa enzyme inhibition assay (chromogenic substrate S-2366)
Counter-ions that a name gives are not always drawn.
For each of the compounds below, state its pKi.
Numbers only, as −log10 of the molar value.

[
  {
    "compound": "COC1CCN(c2cccc3c2CCN(C(=O)[C@H]2CC(c4cccc(Cl)c4F)=NO2)[C@@H]3C(=O)Nc2ccccc2F)CC1 (single isomer, unassigned) [Example 235, TFA salt]",
    "pKi": 7.63
  },
  {
    "compound": "CN(C)C1CCN(c2cccc3c2CCN(C(=O)c2cn(-c4cccc(Cl)c4F)nn2)[C@H]3C(=O)Nc2ccc(C(=O)O)cc2)CC1 [Example 48, bis-TFA salt]",
    "pKi": 7.05
  }
]

Okay, next one:
Using UniProt:P03951 as the test system, report measured pKi of COc1cccc(-c2cccc3c2CCN(C(=O)c2cn(-c4cccc(Cl)c4F)nn2)C3C(=O)Nc2ccc(C(=O)O)cc2)c1F (centres unmarked) [Example 180] .
8.28

---

Provide the reported Ki of each item.
measurement target: purified human plasma kallikrein (Homo sapiens (Human), UniProt P03952)
Sequence (P03952 391-638): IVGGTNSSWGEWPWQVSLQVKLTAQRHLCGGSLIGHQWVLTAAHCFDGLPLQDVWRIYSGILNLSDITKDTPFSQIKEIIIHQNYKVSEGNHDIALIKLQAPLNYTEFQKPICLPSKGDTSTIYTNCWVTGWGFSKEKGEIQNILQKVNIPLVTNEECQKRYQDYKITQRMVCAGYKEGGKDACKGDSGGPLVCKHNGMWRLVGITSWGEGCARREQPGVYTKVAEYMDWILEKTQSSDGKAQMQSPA
Sequence (P03952 20-390 partner): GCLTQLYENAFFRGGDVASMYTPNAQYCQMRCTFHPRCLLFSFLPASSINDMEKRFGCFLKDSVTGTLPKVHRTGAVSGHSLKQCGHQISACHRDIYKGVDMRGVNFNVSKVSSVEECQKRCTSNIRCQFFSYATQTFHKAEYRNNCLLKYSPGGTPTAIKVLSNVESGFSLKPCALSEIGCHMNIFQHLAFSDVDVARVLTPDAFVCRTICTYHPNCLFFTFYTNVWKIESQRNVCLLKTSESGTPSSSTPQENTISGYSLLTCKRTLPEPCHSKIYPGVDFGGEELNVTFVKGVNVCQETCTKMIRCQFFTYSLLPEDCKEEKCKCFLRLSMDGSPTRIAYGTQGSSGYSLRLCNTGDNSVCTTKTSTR
assay notes: Plasma kallikrein enzyme inhibition assay (chromogenic substrate S-2302)
Assay type: biochemical
condition set: measured at 25° C. (no asterisk)
Structures can show the parent of a compound that is named as a salt.
Numbers only, in nM.

// below: answered molecules
[
  {
    "molecule": "O=C(O)c1ccc(NC(=O)[C@H]2c3ccccc3CCN2C(=O)[C@H]2CC(c3cccc(Cl)c3F)=NO2)cc1 [Example 5]",
    "Ki / nM": 1380
  },
  {
    "molecule": "COC1CCN(c2cccc3c2CCN(C(=O)C2CCN(c4cccc(Cl)c4)C2=O)C3C(=O)Nc2ccc(C(=O)O)cc2)CC1 (stereo not drawn) [Example 151, TFA salt]",
    "Ki / nM": 816
  },
  {
    "molecule": "COC1CCN(c2cccc3c2CCN(C(=O)c2cn(-c4cccc(Cl)c4F)nn2)C3C(=O)Nc2ccc(C(=O)O)cc2)CC1 (stereo not drawn) [Example 215, TFA salt]",
    "Ki / nM": 20.2
  },
  {
    "molecule": "Cn1ncc2cc(-c3cccc4c3CCN(C(=O)c3cn(-c5cccc(Cl)c5F)nn3)C4C(=O)Nc3ccc(C(=O)O)cc3)ccc21 (stereo not drawn) [Example 156]",
    "Ki / nM": 30.1
  },
  {
    "molecule": "CN(C)C1CCN(c2cccc3c2CCN(C(=O)c2cn(-c4cccc(Cl)c4F)nn2)[C@@H]3C(=O)Nc2ccc(C(=O)O)cc2)CC1 (single isomer, unassigned) [Example 49, bis-TFA salt]",
    "Ki / nM": 1.39
  }
]

Now let's try a different one.
Provide Ki value for the following molecule: CN(C)C1CCN(c2cccc3c2CCN(C(=O)c2cn(-c4cccc(Cl)c4F)nn2)C3C(=O)Nc2ccc(-c3nnn[nH]3)cc2)CC1 (stereo not drawn) [Example 105, bis-TFA salt]
1.69

---

measurement target: purified human Factor XIa (Homo sapiens (Human), UniProt P03951)
Sequence (P03951 388-625): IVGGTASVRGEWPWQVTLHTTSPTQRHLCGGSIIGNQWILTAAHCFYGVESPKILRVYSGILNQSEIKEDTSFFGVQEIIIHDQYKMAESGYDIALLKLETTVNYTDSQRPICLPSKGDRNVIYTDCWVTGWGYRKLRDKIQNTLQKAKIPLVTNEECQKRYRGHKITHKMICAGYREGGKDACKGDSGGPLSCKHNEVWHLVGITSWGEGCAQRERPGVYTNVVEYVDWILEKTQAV
Sequence (P03951 19-387 partner): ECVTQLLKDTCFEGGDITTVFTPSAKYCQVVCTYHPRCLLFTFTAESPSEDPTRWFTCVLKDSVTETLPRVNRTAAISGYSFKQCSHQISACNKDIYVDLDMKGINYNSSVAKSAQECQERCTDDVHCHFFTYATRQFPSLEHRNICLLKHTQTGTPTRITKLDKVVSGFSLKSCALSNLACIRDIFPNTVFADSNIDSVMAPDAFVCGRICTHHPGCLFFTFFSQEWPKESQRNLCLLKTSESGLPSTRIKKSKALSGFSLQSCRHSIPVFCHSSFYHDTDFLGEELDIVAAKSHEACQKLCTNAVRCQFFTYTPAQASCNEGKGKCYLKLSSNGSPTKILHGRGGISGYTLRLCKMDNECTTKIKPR
assay notes: Factor XIa enzyme inhibition assay (chromogenic substrate S-2366)
Counter-ions that a name gives are not always drawn.
readout kind: pKi
One number for each entry, as −log10 of the molar value.

Sample answers from the record:
[
  {
    "compound": "COC1CCN(c2cccc3c2CCN(C(=O)[C@H]2CC(c4cccc(Cl)c4F)=NO2)[C@H]3C(=O)Nc2ccccc2F)CC1 (single isomer, unassigned) [Example 236, TFA salt]",
    "measured number": 6.34
  },
  {
    "compound": "O=C(O)c1ccc(NC(=O)C2c3cccc(Cl)c3CCN2C(=O)c2cn(-c3cccc(Cl)c3F)nn2)cc1 (centres unmarked)",
    "measured number": 7.24
  },
  {
    "compound": "COC1CCN(c2cccc3c2CCN(C(=O)c2nnn(-c4cccc(Cl)c4F)c2C)C3C(=O)Nc2ccc(C(=O)O)cc2)CC1 (racemic) [Example 253, TFA salt]",
    "measured number": 7.96
  },
  {
    "compound": "COC1CCN(c2cccc3c2CCN(C(=O)[C@H]2CC(c4cccc(Cl)c4F)=NO2)[C@H]3C(=O)Nc2cccc(F)c2)CC1 (single isomer, unassigned) [Example 238, TFA salt]",
    "measured number": 6.20
  },
  {
    "compound": "COC1CCN(c2cccc3c2CCN(C(=O)[C@H]2CC(c4cccc(Cl)c4F)=NO2)[C@@H]3C(=O)Nc2cccnc2)CC1 (single isomer, unassigned) [Example 241, TFA salt]",
    "measured number": 8.06
  },
  {
    "compound": "COC1CCN(c2cccc3c2CCN(C(=O)c2cc(-c4cccc(Cl)c4F)no2)C3C(=O)Nc2ccc(C(=O)O)cc2)CC1 (racemic) [Example 268, TFA salt]",
    "measured number": 5.85
  }
]

Please state, for each entry, its recorded pKi.
1. COC1CCN(c2cccc3c2CCN(C(=O)c2coc(-c4cccc(Cl)c4F)n2)C3C(=O)Nc2ccc(C(=O)O)cc2)CC1 (racemic) [Example 310, TFA salt]
2. COC1CCN(c2cccc3c2CCN(C(=O)c2cc(-c4cccc(Cl)c4F)ns2)C3C(=O)Nc2ccc(C(=O)O)cc2)CC1 (racemic) [Example 269, TFA salt]
3. COC1CCN(c2cccc3c2CCN(C(=O)[C@H]2CC(c4cccc(Cl)c4F)=NO2)[C@H]3C(=O)Nc2cccnc2)CC1 (single isomer, unassigned) [Example 242, TFA salt]
4. COC1CCN(c2cccc3c2CCN(C(=O)c2cc(-c4cccc(Cl)c4)n[nH]2)C3C(=O)Nc2ccc(C(=O)O)cc2)CC1 (racemic) [Example 311, TFA salt]
5. COC1CCN(c2cccc3c2CCN(C(=O)c2cc(-c4c(F)ccc(Cl)c4F)no2)C3C(=O)Nc2ccc(C(=O)O)cc2)CC1 (racemic) [Example 265, TFA salt]
6. COC1CCN(c2cccc3c2CCN(C(=O)c2cnn(-c4cccc(Cl)c4F)c2)[C@H]3C(=O)Nc2ccc(C(=O)O)cc2)CC1 [Example 316, TFA salt]

1. 7.09
2. 7.48
3. 6.73
4. 7.73
5. 7.88
6. 7.37

Report value: pKi, system: purified human Factor XIa (Homo sapiens (Human), UniProt P03951), compound: COc1cccc2c1CCN(C(=O)c1cn(-c3cccc(Cl)c3F)nn1)C2C(=O)Nc1ccc(C(=O)O)cc1 (racemic) [Example 275, TFA salt]
7.97

---

Exercise: state measured Ki for each of the compounds provided.
measurement target: UniProtKB P03951
assay notes: Factor XIa enzyme inhibition assay (chromogenic substrate S-2366)
condition set: read-out: Factor XIa Ki; measured at 25° C.
Structures can show the parent of a compound that is named as a salt.

Example cases with answers are listed next.
[
  {
    "compound": "CN(C)CCNC(=O)c1ccc(-c2cccc3c2CCN(C(=O)c2cn(-c4cccc(Cl)c4F)nn2)[C@@H]3C(=O)Nc2ccc(C(=O)O)cc2)cc1 [Example 10, TFA salt]",
    "result": "< 5 nM"
  },
  {
    "compound": "COC1CCN(c2cccc3c2CCN(C(=O)c2cnn(-c4cccc(Cl)c4F)c2N)[C@H]3C(=O)Nc2ccc(C(=O)O)cc2)CC1 [Example 286, TFA salt]",
    "result": "266 nM"
  },
  {
    "compound": "CN1CCC2(CCN(c3cccc4c3CCN(C(=O)c3cnn(-c5cccc(Cl)c5F)c3)C4C(=O)Nc3ccc(C(=O)O)cc3)CC2)C1=O (stereo not drawn) [Example 107, TFA salt]",
    "result": "< 5 nM"
  },
  {
    "compound": "O=C(Nc1ccc(-c2ncc[nH]2)cc1)C1c2cccc(-c3cncnc3)c2CCN1C(=O)c1cn(-c2cccc(Cl)c2F)cn1 (stereo not drawn) [Example 137, TFA]",
    "result": "< 5 nM"
  },
  {
    "compound": "COC1CCN(c2cccc3c2CCN(C(=O)c2cn(-c4cccc(Cl)c4F)cn2)[C@H]3C(=O)Nc2ccc(C(=O)O)cc2)CC1 [Example 272, TFA salt]",
    "result": "976 nM"
  }
]

Return the recorded Ki value; entry: COC1CCN(c2cccc3c2CCN(C(=O)c2cn(-c4cccc(Cl)c4F)nn2)C3C(=O)Nc2ccc(C(=O)O)cc2)CC1 (stereo not drawn) [Example 215, TFA salt]
< 5 nM

Provenance of the data: patent US9738655B2
